# subject of test: AAK1 (Homo sapiens)
# Construct: NP_055726.2
# procedure summary: P81 filter plate assay
# Format: biochemical
# assay conditions: full-length human AAK1, Mu2 substrate, 33P-ATP
Below, each of the compounds is paired with its reported IC50 value.

See these solved cases before continuing.
1) CCOCCOC(=O)N1CCN(c2ccn3ncc(-c4cccnc4OC)c3n2)CC1 = ≤ 0.1 µM
2) CC(C)C[C@H](N)C(=O)N1CCN(c2ccn3ncc(Br)c3n2)CC1 = ≤ 0.1 µM
3) CC(C)OC(=O)N1CCN(c2ccn3ncc(Cl)c3n2)CC1 = ≤ 0.1 µM
4) CC(C)(C)OCCCNc1ccn2ncc(Br)c2n1 = ≤ 1 µM
5) COc1ncccc1-c1cnn2ccc(N3CCN(C(=O)[C@@H](N)C(C)(C)C)CC3)nc12 = ≤ 0.01 µM
6) COc1ncccc1-c1cnn2ccc(N3CCN(C(=O)C4(N)CCOC4)CC3)nc12 (stereo not shown) = ≤ 0.01 µM
7) COc1cnccc1-c1cnn2ccc(N3CCN(C(=O)OC(C)C)CC3)nc12 = ≤ 0.01 µM
8) COC[C@@H](C)OC(=O)N1CCN(c2ccn3ncc(-c4cccnc4OC)c3n2)CC1 = ≤ 0.01 µM
9) COc1ncccc1-c1cnn2ccc(N3CCN(C(=O)OCCOC(C)(C)C)CC3)nc12 = ≤ 0.01 µM

// below: IC50 requested for another compound
Let me know recorded IC50 for CCCOC(=O)N1CCN(c2ccn3ncc(-c4cccnc4OC)c3n2)CC1 , thanks.
≤ 0.01 µM

###

Below, each entry is listed alongside its reported pIC50.
# subject of test: AAK1 (Homo sapiens)
# Construct: NP_055726.2
# procedure summary: P81 filter plate assay
# Format: biochemical
# assay conditions: full-length human AAK1, Mu2 substrate, 33P-ATP
pIC50: −log10 of the molar value.

1) CC(C)OC(=O)N1CCN(c2ccn3ncc(-c4cccnc4F)c3n2)CC1 = ≥ 8.00
2) COc1ncccc1-c1cnn2ccc(NCCNC(=O)OC(C)C)nc12 = ≥ 7.00
3) COc1nc(C)ccc1-c1cnn2ccc(N3CC[C@H](N(C)C(=O)OC(C)C)C3)nc12 = ≥ 8.00
4) CCOC(=O)N1CCN(c2ccn3ncc(-c4cc(F)ccc4OC)c3n2)CC1 = ≥ 8.00
5) COc1ncc(F)cc1-c1cnn2ccc(N3CCN(CCC(F)(F)F)CC3)nc12 = ≥ 6.00

Then there is this compound:
Look up AAK1 (Homo sapiens) data: pIC50 of COc1ncccc1-c1cnn2ccc(N3CCN(c4noc(C(C)C)n4)CC3)nc12 , then report it.
≥ 7.00

###

The reader will find reported pIC50 values listed item by item below.
# subject of test: AAK1 (Homo sapiens, UniProt Q2M2I8)
# Construct: NP_055726.2
# Sequence (Q2M2I8 1-863 isoform Q2M2I8-2): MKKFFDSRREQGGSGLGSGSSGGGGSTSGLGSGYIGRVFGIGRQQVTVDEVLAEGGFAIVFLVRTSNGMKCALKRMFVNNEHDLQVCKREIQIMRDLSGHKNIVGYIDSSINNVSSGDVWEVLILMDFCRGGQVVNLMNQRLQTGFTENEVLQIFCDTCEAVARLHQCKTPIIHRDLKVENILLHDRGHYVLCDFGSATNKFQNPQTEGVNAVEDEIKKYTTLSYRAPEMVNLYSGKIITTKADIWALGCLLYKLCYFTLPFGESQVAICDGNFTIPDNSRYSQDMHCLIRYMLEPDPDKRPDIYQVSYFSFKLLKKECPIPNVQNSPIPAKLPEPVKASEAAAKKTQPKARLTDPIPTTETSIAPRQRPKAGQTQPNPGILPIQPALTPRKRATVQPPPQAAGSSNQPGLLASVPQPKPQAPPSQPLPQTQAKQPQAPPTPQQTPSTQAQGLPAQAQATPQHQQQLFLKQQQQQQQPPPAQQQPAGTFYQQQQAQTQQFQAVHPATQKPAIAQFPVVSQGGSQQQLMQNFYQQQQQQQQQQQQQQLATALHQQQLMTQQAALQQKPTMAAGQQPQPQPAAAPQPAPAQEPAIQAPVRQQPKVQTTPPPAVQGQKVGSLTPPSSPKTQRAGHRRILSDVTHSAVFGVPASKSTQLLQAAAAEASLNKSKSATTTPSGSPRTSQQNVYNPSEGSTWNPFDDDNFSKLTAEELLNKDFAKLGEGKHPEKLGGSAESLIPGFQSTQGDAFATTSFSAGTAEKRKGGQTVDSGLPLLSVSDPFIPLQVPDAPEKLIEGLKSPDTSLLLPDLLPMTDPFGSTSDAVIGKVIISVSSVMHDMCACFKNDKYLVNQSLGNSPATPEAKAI
# procedure summary: HEK281 cell-based assay (CBA)
# assay conditions: HEK293F cells transfected with full length human AAK1 and AP2M1; phospho-mu2 Western blot; 3 hours incubation
pIC50: −log10 of the molar value.

Below are worked cases with known answers.
1) CC(C)OC(=O)N1CCN(c2ccn3ncc(-c4ccc(CN)cc4)c3n2)CC1 = ≥ 8.00
2) COc1ccccc1-c1cnn2ccc(N3CCN(C(=O)[C@@H](N)C(C)C)CC3)nc12 = ≥ 8.00

// Input: [2H]C([2H])([2H])Oc1ncccc1-c1cnn2ccc(N3CCN(C(=O)OCC)CC3)nc12 . Output its pIC50 only.
≥ 7.00

Give the reported pIC50 for this molecule. COc1nc(C)ccc1-c1cnn2ccc(N3CCN(C(=O)O[C@@H]4CCOC4)CC3)nc12
≥ 7.00

Name the recorded pIC50 of the molecule listed here: CC(C)C[C@H](N)C(=O)N1CCN(c2ccn3ncc(-c4ccccc4)c3n2)CC1
≥ 8.00

Hello, please tell me recorded pIC50 for this one: COc1ccc(F)cc1-c1cnn2ccc(N3CCN(C(=O)[C@@H](N)CC(C)C)CC3)nc12
≥ 8.00

Tell me pIC50 reported for COc1ccccc1-c1cnn2ccc(N3CCN(C(=O)[C@@H](N)C(C)(C)C)CC3)nc12
≥ 8.00
